# system: 5-hydroxytryptamine receptor 2A (Homo sapiens)
# Sequence (P28223 whole entry): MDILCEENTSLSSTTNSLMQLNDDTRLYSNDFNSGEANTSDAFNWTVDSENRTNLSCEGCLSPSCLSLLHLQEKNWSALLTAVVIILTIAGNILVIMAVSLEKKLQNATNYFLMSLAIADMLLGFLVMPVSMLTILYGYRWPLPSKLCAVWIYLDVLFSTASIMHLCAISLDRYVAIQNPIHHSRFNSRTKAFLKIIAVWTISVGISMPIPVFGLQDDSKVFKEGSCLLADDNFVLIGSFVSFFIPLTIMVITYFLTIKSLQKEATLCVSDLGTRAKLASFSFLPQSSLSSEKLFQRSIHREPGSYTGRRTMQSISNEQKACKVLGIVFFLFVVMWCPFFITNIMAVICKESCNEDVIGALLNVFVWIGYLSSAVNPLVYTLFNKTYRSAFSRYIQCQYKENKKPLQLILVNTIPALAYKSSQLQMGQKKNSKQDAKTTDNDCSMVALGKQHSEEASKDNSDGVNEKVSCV
# strict inequality: Ki < 0.1 µM yields fulfilled, everything else yields not fulfilled

>>> df
                                   compound  discrete_label
0                    CCSc1cc(OC)c(CCN)nc1OC       fulfilled
1                      COc1cc(C)c(OC)nc1CCN   not fulfilled
2  CCSc1cc(OC)c(CC(C)N)nc1OC (stereo not given)   not fulfilled
3  CCCCCc1nc(OC)c(CC(N)CC)nc1OC (stereo not given)   not fulfilled

====

# system: 5-hydroxytryptamine receptor 2A (Homo sapiens)
In this section we review reported Ki values for a set of molecules.
quantity.name: Ki (nM)

>>> print(df.to_string())
                                   molecule  quantity_name  recorded_value
0                  COc1cc(C2CC2)c(OC)nc1CCN             Ki             150
1  CCCCCc1nc(OC)c(CC(N)CC)cc1OC (configuration not stated)             Ki             273
2  COc1cc(Br)c(OC)nc1CC(C)N (configuration not stated)             Ki             168
3  CCSc1cc(OC)c(CC(N)CC)nc1OC (configuration not stated)             Ki             649
4                 CCCCCCc1cc(OC)c(CCN)nc1OC             Ki            0.91
5  COc1cc(C)c(OC)nc1CC(C)N (configuration not stated)             Ki            1170
6  CCCc1cc(OC)c(CC(N)CC)nc1OC (configuration not stated)             Ki             106
